Taken from paper PMC9482650.

system_under_test: TJP2_1, Q9UDY2
Sequence (Q9UDY2 24-128): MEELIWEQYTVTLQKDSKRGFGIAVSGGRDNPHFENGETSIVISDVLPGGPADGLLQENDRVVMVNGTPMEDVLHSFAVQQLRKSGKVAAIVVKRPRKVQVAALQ
assay_details: holdup assay
Design: key: below the threshold = too weak to quantify, mostly under pKd 3.1 to 4
condition_label: plain residues with an end cap or a label only (N-terminal biotin on a linker: ado-ado)
reported_property: pKd

Some entries whose results are on file:
>>> print(df.to_string())
                         binder  observed_measurement
0    SGSLKLMTTV [DACT1, Q9NYF0]                  3.58
1    YRLAQESGLV [ABCC6, O95255]   below the threshold
2    VNKSKLLTDV [KCNA1, Q09470]   below the threshold
3   LSEFKAMDSI [CTNNA1, P35221]   below the threshold
4  PRISRSQSEL [CCDC134, Q9H6E4]   below the threshold
5    SAAKVLTSMC [GHRHR, Q02643]                   3.6
6    QSPANIYYKV [EFNB1, P52799]   below the threshold
7    PAPSSGKDYV [CLDN1, O95832]                  3.71

LPAHHNATRL [SLC34A1, Q06495] has a reported pKd of 3.54

HLRARKSEWV [GJD4, Q96KN9] has a reported pKd of 6.04

PPYRHRNTVV [ERBB4, Q15303] has a reported pKd of 3.81

DDENIRTSDV [PLEKHA2, Q9HB19] has a reported pKd of below the threshold

NHSSSPETTA [TRMT13, Q9NUP7] has a reported pKd of below the threshold

TACCHSETVV [TGFA, P01135] has a reported pKd of below the threshold

IKAIVDLTGL [TRAF2, Q12933] has a reported pKd of below the threshold

EVEEFPETSV [TRPV3, Q8NET8] has a reported pKd of below the threshold

SSALYGESDL [ACTN2, P35609] has a reported pKd of below the threshold
